Source of measurements: the supplement of paper PMC10724198

protein stability index reference
Tested on: Saccharomyces cerevisiae
Assay Explanation: protein stability index of tFT-peptide fusion (C-terminal peptide) (PSI (0-1 scale)); higher = more stable (slower turnover)
Conditions Used: genetic background: wild type; temperature: 30 C

{"Item Sequence": "GRPEQAPECKQS [NAP1 C-terminal 12 aa]", "protein stability index": 0.648}
{"Item Sequence": "KGPSKTALLSKK [PKP1 C-terminal 12 aa]", "protein stability index": 0.711}
{"Item Sequence": "FQERIKNKNILK [CWC27 C-terminal 12 aa]", "protein stability index": 0.729}
{"Item Sequence": "ISSKSIPSVDDK [YIL071W-A C-terminal 12 aa]", "protein stability index": 0.706}
{"Item Sequence": "DKYPFLLYEVVR [YHR022C-A C-terminal 12 aa]", "protein stability index": 0.544}
{"Item Sequence": "DISDKIRRMQSR [MGP12 C-terminal 12 aa]", "protein stability index": 0.777}
{"Item Sequence": "FCESDSIKMYPT [FYV10 C-terminal 12 aa]", "protein stability index": 0.698}
{"Item Sequence": "ISVSSGIENFAT [YJL202C C-terminal 12 aa]", "protein stability index": 0.654}
{"Item Sequence": "MMTRENMDMGER [RRP3 C-terminal 12 aa]", "protein stability index": 0.649}
{"Item Sequence": "RGIAAIRESLSN [YIR042C C-terminal 12 aa]", "protein stability index": 0.697}
{"Item Sequence": "YKELVKKIESKN [CIT1 C-terminal 12 aa]", "protein stability index": 0.708}
{"Item Sequence": "LNNTAASTGPGR [YKE2 C-terminal 12 aa]", "protein stability index": 0.655}
{"Item Sequence": "LIWLTIIYQALT [IRC18 C-terminal 12 aa]", "protein stability index": 0.269}
{"Item Sequence": "EIRKIMMEEQPR [CHM7 C-terminal 12 aa]", "protein stability index": 0.66}
{"Item Sequence": "TALLENDANLIS [ERV15 C-terminal 12 aa]", "protein stability index": 0.703}
{"Item Sequence": "HFANFKRTIEEK [AMD1 C-terminal 12 aa]", "protein stability index": 0.693}
{"Item Sequence": "RLEKEAKIKQEE [CDC11 C-terminal 12 aa]", "protein stability index": 0.678}
{"Item Sequence": "FSSEQGNPKEEK [FMP10 C-terminal 12 aa]", "protein stability index": 0.733}
{"Item Sequence": "PEGGDGPKYTLT [CIR2 C-terminal 12 aa]", "protein stability index": 0.721}
{"Item Sequence": "ASSIYIIFDYEN [BUB3 C-terminal 12 aa]", "protein stability index": 0.637}
{"Item Sequence": "HAAEQILKHFAA [THI4 C-terminal 12 aa]", "protein stability index": 0.708}
{"Item Sequence": "VDVLKLNDPTRH [BCY1 C-terminal 12 aa]", "protein stability index": 0.706}
{"Item Sequence": "KKKKQIKNFQFG [YMR290W-A C-terminal 12 aa]", "protein stability index": 0.656}
{"Item Sequence": "RLGLDWQPDSVS [MTH1 C-terminal 12 aa]", "protein stability index": 0.686}
{"Item Sequence": "ALDAERYLSAQE [TRR2 C-terminal 12 aa]", "protein stability index": 0.672}
{"Item Sequence": "PKGDIEASIAEE [MPH3 C-terminal 12 aa]", "protein stability index": 0.677}
{"Item Sequence": "INEDNKAYSLDY [RIM4 C-terminal 12 aa]", "protein stability index": 0.722}
{"Item Sequence": "QHDEKPFYKRMF [HXT8 C-terminal 12 aa]", "protein stability index": 0.666}
{"Item Sequence": "CLGDSIVNLLLI [YGR259C C-terminal 12 aa]", "protein stability index": 0.335}
{"Item Sequence": "FRSSAGLRSSKV [MIC10 C-terminal 12 aa]", "protein stability index": 0.706}
{"Item Sequence": "KKLDGEVLCRVK [MRPS8 C-terminal 12 aa]", "protein stability index": 0.644}
{"Item Sequence": "RTRPPTAVAHIA [DUG3 C-terminal 12 aa]", "protein stability index": 0.337}
{"Item Sequence": "NEEMAEISNPFR [FEN2 C-terminal 12 aa]", "protein stability index": 0.711}
{"Item Sequence": "PLITPSGFRSSL [YNR025C C-terminal 12 aa]", "protein stability index": 0.715}
{"Item Sequence": "FEVDVDSLFKLY [MET1 C-terminal 12 aa]", "protein stability index": 0.442}
{"Item Sequence": "RDVLDDGSNIMS [IAH1 C-terminal 12 aa]", "protein stability index": 0.7}
{"Item Sequence": "MKTRLERERGLV [PTC4 C-terminal 12 aa]", "protein stability index": 0.638}
{"Item Sequence": "APEFLDWLDEEN [HEM2 C-terminal 12 aa]", "protein stability index": 0.679}
{"Item Sequence": "HKKEVVSKGDDY [MAP2 C-terminal 12 aa]", "protein stability index": 0.653}
{"Item Sequence": "STTADSTTNSAN [YLR146W-A C-terminal 12 aa]", "protein stability index": 0.664}
{"Item Sequence": "GKRNYLLSVTFV [YCR006C C-terminal 12 aa]", "protein stability index": 0.639}
{"Item Sequence": "NSNELEYAPTAN [LIA1 C-terminal 12 aa]", "protein stability index": 0.7}
{"Item Sequence": "FMGLGCVISEEL [TFB3 C-terminal 12 aa]", "protein stability index": 0.685}
{"Item Sequence": "TGQVGVPTISQV [NCE102 C-terminal 12 aa]", "protein stability index": 0.682}
{"Item Sequence": "AVERLKLLKDYL [BNA3 C-terminal 12 aa]", "protein stability index": 0.73}
{"Item Sequence": "ISIVACALWLVF [DCW1 C-terminal 12 aa]", "protein stability index": 0.291}
{"Item Sequence": "STATGKLKKRKM [RAD2 C-terminal 12 aa]", "protein stability index": 0.649}
{"Item Sequence": "CVKVQQFSVIVL [YDR193W C-terminal 12 aa]", "protein stability index": 0.617}
{"Item Sequence": "VLSFNPKVWLLV [YAR068W C-terminal 12 aa]", "protein stability index": 0.0978}
